Assay: NO release in PBS versus rat plasma (Griess reaction)
Type: in vitro ADME
Conditions: 100 μM in PBS versus rat plasma, 37° C., readings at 0 minutes, 30 minutes, 3 hours; classified and ranked on NO release behavior
Reported Metric: Release Behavior

Some solved cases for reference:
CCN(CC)/[N+]([O-])=N/OCSC; slow/low release
CCN(CC)/[N+]([O-])=N/OCOC(=O)C(C)(C)NC(=O)OC(C)(C)C; slow/low release
O=C1c2ccccc2C(=O)N1CO/N=[N+](\[O-])N1CCCC1CO (stereo not shown); unstable
O=C(OCO/N=[N+](\[O-])N1CCCC1CO)c1ccccc1 (stereo not shown); slow onset
CCN(CC)/[N+]([O-])=N/OC(C)OC(=O)OC(C)(C)C (stereo not shown); unstable

Lookup result for CCCC(=O)OCO/N=[N+](\[O-])N1CCCC1CO (stereo not shown) ; measured Release Behavior: steady/low

# Release Behavior of C[S+]([O-])CO/N=[N+](\[O-])N1CCCC1CO (stereo not shown) = slow/low release

Data point: "CCN(CC)/[N+]([O-])=N/OCN1C(=O)c2ccccc2C1=O" ; Release Behavior = unstable

Given item CC(C)OC(=O)OCO/N=[N+](\[O-])N1CCCC1CO (stereo not shown) , the value recorded as its Release Behavior is slow/low release

Reported Release Behavior for "CCN(CC)/[N+]([O-])=N/OCOC(=O)c1ccccc1" was steady

Recorded Release Behavior (molecule CCC(CC)C(=O)OCO/N=[N+](\[O-])N1CCCC1CO (stereo not shown) ): slow onset

For record "CCC(CC)C(=O)OCO/N=[N+](\[O-])N(CC)CC" the listed Release Behavior is slow onset

Summary for this molecule, "CCN(CC)/[N+]([O-])=N/OCOC(=O)[C@@H](NC(=O)OC(C)(C)C)C(C)C" : Release Behavior is slow onset

Recorded result, CC(C)(C)C(=O)OCO/N=[N+](\[O-])N1CCCC1CO (stereo not shown) , Release Behavior: steady

Looking up CCN(CC)/[N+]([O-])=N/OC[S+](C)[O-] (stereo not shown) , I found its Release Behavior recorded as slow/low release

Just so you know, measured Release Behavior for CCN(CC)/[N+]([O-])=N/OC(C)OC(=O)OC(C)C (stereo not shown) came out at steady/low

Release Behavior in this record for CSCO/N=[N+](\[O-])N1CCCC1CO (stereo not shown) : slow/low release
